Assay: Toxicity liver stage against HepG2, at 10uM
Type: cell-based
Set-up: test concentration 10 uM, cell line HepG2-A16-CD81EGFP
Conditions: human, HepG2-A16-CD81EGFP cells; read-out: INHIBITION
Please provide measured cytotoxicity at 10 µM for the entries that follow.
Give bare numbers, in %.

Required: cytotoxicity at 10 µM, one value per molecule below.
1. COc1cc(CNCCC(N)=O)c2c(c1)CC(C)O2 (centres undefined)
2. O=C(O)C(c1ccc(Cl)c(F)c1)N1CCN(Cc2ccccn2)CC1 (centres undefined)

Data returned:
1. 8.41
2. 8.09

----------
Please provide measured cytotoxicity at 10 µM for the entries that follow.
Experiment: Toxicity liver stage against HepG2, at 10uM
Format: cell-based
Parameters: test concentration 10 uM, cell line HepG2-A16-CD81EGFP
Settings: human, HepG2-A16-CD81EGFP cells; read-out: INHIBITION
Give bare numbers, in %.

Example entries and their recorded answers appear below.
molecule: O=C(c1cnccn1)N1C[C@@H]2CCN(c3cnccn3)C[C@@H]2C1
unit_name: %
measured_number: -100
//
molecule: CNC(=O)[C@@H](c1ccccc1OC)N1CCC[C@H]1C(=O)NC1CC1
unit_name: %
measured_number: -4.39
//
molecule: CN(C)S(=O)(=O)N1CCN(Cc2ccnc(N3CCCC3)n2)CC1
unit_name: %
measured_number: -4.42

Required: cytotoxicity at 10 µM, one value per molecule below.
1. CCOCC(=O)NC(C#N)c1cnn(-c2ccccc2)c1 (configuration not stated)
2. CN(Cc1nnc(C2CC2)n1C)C1CCN(CCc2ccccc2)C1 (configuration not stated)
3. COCCN1CCC(CN(CC2CCCO2)C(=O)Cn2cccn2)CC1 (configuration not stated)
4. NC(=O)NC1(C(=O)N2CCc3c(Cl)cccc3C2)CCCCC1
5. CC(C)Cc1noc(CN(C)C2CCS(=O)(=O)C2)n1 (configuration not stated)
6. CC(=O)N(C)c1nc(CN2CCOC(Cn3cc(C)cn3)C2)cs1 (configuration not stated)
7. COc1c(C2CCCN2C(=O)c2ccc(N(C)C)nn2)c(C)nn1C (configuration not stated)
8. Cc1nc(CN2Cc3nccn3CC(CN3CCOCC3)C2)cs1 (configuration not stated)

Data returned:
1: -4.39; 2: 2.03; 3: -3.79; 4: -3.45; 5: 5.7; 6: -7; 7: -13.7; 8: 0.951

Required: cytotoxicity at 10 µM, one value per molecule below.
1. Cc1ncsc1CNc1cc(N2CCCC2CO)ncn1 (configuration not stated)
2. Cc1ccc(CNC(c2ccccc2)c2nccn2C)cc1 (configuration not stated)
3. CC(NC(=O)NCCCN(C)C)c1ccc2c(c1)CCC(=O)N2 (configuration not stated)
4. NCc1cnn(-c2ccccc2C(=O)NCCCn2ccnc2)c1
5. CC(C)(C)c1nc(CN(Cc2cccs2)C2CCS(=O)(=O)C2)no1 (configuration not stated)

Data returned:
1: -12.5; 2: -6.3; 3: -8.03; 4: -3.01; 5: -3.63

Required: cytotoxicity at 10 µM, one value per molecule below.
1. CC(C#N)(NC(=O)Cn1cc(I)cn1)C1CC1 (configuration not stated)
2. O=C(CCc1cc2n(n1)CCN(CCCn1cccc1)C2)N1CCCC1
3. O=C(CN1CCCC1Cn1cncn1)NCCc1c(F)cccc1F (configuration not stated)
4. Cc1nccnc1N1Cc2cnn(Cc3ccc(F)cc3)c2C1
5. CC(C)c1ccc(CN2CCN(C(=O)c3cc(C4CC4)[nH]n3)CC2)cc1
6. CCCc1noc(CN2CCN(CCO)CC2)n1
7. Cc1nc2ccccc2nc1CN1CCCCC1Cn1cccn1 (configuration not stated)

Data returned:
15.2
-15.4
-6.24
2.45
39.7
-12.1
3.94

----------
Experiment: Toxicity liver stage against HepG2, at 10uM
Assay type: cell-based
Parameters: test concentration 10 uM, cell line HepG2-A16-CD81EGFP
Settings: human, HepG2-A16-CD81EGFP cells; read-out: INHIBITION
outcome_measure: cytotoxicity at 10 µM (%)
Give bare numbers, in %.

Example entries and their recorded answers appear below.
compound: Cc1nc(NC(=O)COCC2CC2)ccc1Br
unit_name: %
cytotoxicity at 10 µM: -1.51
//
compound: Cc1ccc(-c2nc(C(=O)N3CCCCC3CNS(C)(=O)=O)cs2)cc1 (stereo not drawn)
unit_name: %
cytotoxicity at 10 µM: -2.14
//
compound: CC(C)c1cc(C(=O)N(C)Cc2cccc3ncccc23)n(C)n1
unit_name: %
cytotoxicity at 10 µM: 12.3
//
compound: CC(C)(C)C(=O)N1CC[C@@H]2[C@H](CC1)N(S(C)(=O)=O)CCS2(=O)=O
unit_name: %
cytotoxicity at 10 µM: 0.64
//
compound: CN(CC(=O)N1CCC(C(O)c2ccccc2)CC1)c1cnccn1 (stereo not drawn)
unit_name: %
cytotoxicity at 10 µM: -2.9
//
compound: CCOc1cc([C@@H]2N[C@H](c3nccs3)Cc3ccsc32)ccc1OC
unit_name: %
cytotoxicity at 10 µM: 7.94
//
compound: Cc1ccc(CN2CC[C@H]3C(=O)N(Cc4cccnc4)CCO[C@H]3C2)o1
unit_name: %
cytotoxicity at 10 µM: -88.7
//
compound: O=C(c1cc[nH]n1)N1CC[C@@H]2CN(Cc3cccnc3)S(=O)(=O)[C@@H]2CC1
unit_name: %
cytotoxicity at 10 µM: 12.7
//
compound: CN(C)CCOCC1CN(Cc2ccsc2)Cc2ccnn2C1 (stereo not drawn)
unit_name: %
cytotoxicity at 10 µM: 3.01
//
compound: O=C1CC(C(=O)Nc2nnc(-c3cccs3)[nH]2)c2ccccc2N1 (stereo not drawn)
unit_name: %
cytotoxicity at 10 µM: -0.921

Required: cytotoxicity at 10 µM, one value per compound below.
1. O=C(CCc1cscn1)NS(=O)(=O)c1ccc2c(c1)CCC2
2. Cc1ccc(C(NCC(=O)N2CCNC(=O)C2)C(F)(F)F)cc1 (stereo not drawn)
3. CC(C)[C@@H]1CN(C(=O)C2(c3ccccc3)CCN(C)CC2)C[C@H]1C(=O)O
4. CC(C)CCN1CCC2(CCCN(c3nncs3)C2)C1 (stereo not drawn)
5. Cc1nn(C)c(C)c1CN(CCO)C(=O)C1COc2ccccc2C1 (stereo not drawn)
6. CNS(=O)(=O)c1ccc(CNC(=O)c2ccccn2)cc1

Data returned:
[-24.5, -8.3, 8.73, -139, -8.07, 10.2]

Required: cytotoxicity at 10 µM, one value per compound below.
1. CN(C)c1ncccc1NC(=O)COCC1CC1
2. O=C(CN1CCOC(Cn2cccn2)C1)Nc1cccnc1 (stereo not drawn)
3. Cc1cc(C(=O)N2CCN(Cn3cc(Cl)cn3)CC2)c(C)o1
4. OCCCc1nncn1-c1cccc(C(F)(F)F)c1
5. CC(C)[C@H](CO)Nc1nccc(-c2c[nH]nc2-c2ccncc2)n1
6. CCN1C(=O)C(C#N)=C(C)/C(=C/C2=Cc3ccccc3OC2)C1=O
7. CCC(C#N)NC(=O)CCCOc1cccc(C(C)=O)c1 (stereo not drawn)
8. c1ccc(Cc2noc(CN3CCOC(Cn4cncn4)C3)n2)cc1 (stereo not drawn)

Data returned:
1. -4.69
2. 10.7
3. 10.9
4. 6.74
5. -4.66
6. -40.9
7. -35.1
8. 1.28

Required: cytotoxicity at 10 µM, one value per compound below.
1. CCOc1cc(CNC(=O)C(C#N)c2nc(C)cs2)ccc1OC(F)F (stereo not drawn)
2. CC(C)(C)c1nc(CN(CCO)Cc2cc(Br)ccc2F)no1

Data returned:
[8.61, 8.52]

Required: cytotoxicity at 10 µM, one value per compound below.
1. CCc1nnc(CN2CCCC(c3cc(C(F)(F)F)[nH]n3)C2)o1 (stereo not drawn)
2. Cc1cccc(NC(=O)N2CCC(CO)(Nc3ccccc3)CC2)c1
3. Cc1noc(C(C)C)c1C(=O)NCCCN1CCCCCC1=O
4. CC(C)n1[nH]c(=O)c2c1NC(=O)CC2C1CCCCC1 (stereo not drawn)
5. CCOc1ccccc1C(CC(=O)N(C)c1ccccc1)NC(C)=O (stereo not drawn)

Data returned:
1. 6.88
2. 0.045
3. 1.91
4. -12.9
5. -8.28

Required: cytotoxicity at 10 µM, one value per compound below.
1. Cc1cc(C2CCCN(C(=O)COc3cc(C)on3)C2)n[nH]1 (stereo not drawn)
2. CN(C)C(=O)c1cnn2c1OCCC2
3. CC(C)(CN1CCC(Cc2ccc(CO)cc2)C1)N1CCOCC1 (stereo not drawn)
4. COc1cc(C)c(NC(=O)NCCn2cccc2)cc1OC

Data returned:
[-3.87, -6.59, -2.71, 0.414]

Required: cytotoxicity at 10 µM, one value per compound below.
1. CCCC(=O)N1CCN(CCN(C)C)c2nc(C)ccc2C1
2. CCNc1ncc(C(=O)NCCNc2ccncc2C)cn1
3. O=C(NC[C@@H]1CCCO1)c1ccc(S(=O)(=O)N[C@@H]2CCNC2)cc1

Data returned:
1: -73.9; 2: -6.83; 3: -42.2
